Quick list: kon per entry.
Target: T1, serum purified human Complement Factor D (human, UniProt P00746 26-253)
T1 construct: Serum purified protein flowed over the captured antibodies; also called CFD; human CFD
T1 sequence (P00746 26-253): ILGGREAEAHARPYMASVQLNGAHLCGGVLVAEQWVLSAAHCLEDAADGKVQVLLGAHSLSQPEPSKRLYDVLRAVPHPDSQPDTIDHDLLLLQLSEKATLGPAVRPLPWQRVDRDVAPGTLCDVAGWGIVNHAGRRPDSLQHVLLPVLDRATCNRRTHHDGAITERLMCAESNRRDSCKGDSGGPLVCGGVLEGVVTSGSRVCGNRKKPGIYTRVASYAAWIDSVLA
Test: SPR Biacore, antibody on protein A chip, single cycle kinetics, 37 C;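 also: antibodies captured on the protein A surface to roughly 70 RU in HBS-EP+ buffer, with rate and affinity constants fitted using BIAevaluation software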
Expressed in M⁻¹ s⁻¹, but write only the number.

Look up and report measured kon for this entry: 28S31S54V59D / 101V (antibody, V domains shown, KCD119 TAF variant; full antibody captured on protein A) VH: EVQLVESGGGLVQPGGSLRLSCAASGYSFTSYYMNWVRQAPGKGLEWIGDINPVTGDTDYNADFKRRFTFSLDTSKSTAYLQMNSLRAEDTAVYYCTREGPSFAYWGQGTLVTVSS VL: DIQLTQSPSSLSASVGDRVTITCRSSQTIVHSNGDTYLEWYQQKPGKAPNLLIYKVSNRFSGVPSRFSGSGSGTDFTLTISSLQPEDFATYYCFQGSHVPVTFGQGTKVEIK
1.26e+07

Look up and report measured kon for this entry: 54I59D / 54G60W101 (antibody, V domains shown) VH: EVQLVESGGGLVQPGGSLRLSCAASGYTFTDYYMNWVRQAPGKGLEWIGDINPITGDTDYNADFKRRFTFSLDTSKSTAYLQMNSLRAEDTAVYYCTREGPSFAYWGQGTLVTVSS VL: DIQLTQSPSSLSASVGDRVTITCRSSQTIVHSNGDTYLEWYQQKPGKAPNLLIGKVSNRWSGVPSRFSGSGSGTDFTLTISSLQPEDFATYYCFQGSHVPVTFGQGTKVEIK
1.19e+07

---
Look up and report measured kon for this entry: 31S54V59D / 32W60W101V (antibody, V domains shown, KCD119 TAF variant; full antibody captured on protein A) VH: EVQLVESGGGLVQPGGSLRLSCAASGYTFTSYYMNWVRQAPGKGLEWIGDINPVTGDTDYNADFKRRFTFSLDTSKSTAYLQMNSLRAEDTAVYYCTREGPSFAYWGQGTLVTVSS VL: DIQLTQSPSSLSASVGDRVTITCRSSQTIVHWNGDTYLEWYQQKPGKAPNLLIYKVSNRWSGVPSRFSGSGSGTDFTLTISSLQPEDFATYYCFQGSHVPVTFGQGTKVEIK
1.29e+07

Cited source: patent US20180334496A1
